%Inh: recorded values
Tested on: ERBB3
Settings: concentration: 1 μM, replicates: in singlicate; n = 1;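 also: KINOMEscan kinase panel screen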
Report the value in % with no unit label.

These recorded examples may help you get a feel for the data.
[[record]]
smiles = "Cc1cccc(-c2nc(C)cc(Nc3ccncc3)n2)n1"
tgt = "ERBB3"
readout_label = "%Inh"
quantity_unit = "%"
number = 0

[[record]]
smiles = "O=C(Nc1n[nH]c2nc(-c3nccs3)c(Br)cc12)C1CC1"
tgt = "ERBB3"
readout_label = "%Inh"
quantity_unit = "%"
number = 19


[in] Give the observed %Inh of O=C(Nc1n[nH]c2nc(-c3nccs3)c(Br)cc12)C1CCCC1 for ERBB3.
[out] 0

[in] Give the observed %Inh of O=S(=O)(c1ccc(-c2ccnc3[nH]ccc23)cc1)N1CCCC1 for ERBB3.
[out] 0

[in] Give the observed %Inh of COc1ccc(Nc2nccc(-c3cccc(NC(=O)c4cc5cc(F)ccc5[nH]4)c3)n2)cc1 for ERBB3.
[out] 29

---

%Inh: recorded values
System: MAP4K2
Conditions: concentration: 1 μM, replicates: in singlicate; n = 1
Report the value in % with no unit label.

[in] Give the observed %Inh of Cc1cccc(-c2nc(-c3ccc(S(C)(=O)=O)cc3)sc2-c2ccnc(NCCc3ccccc3)c2)c1 for MAP4K2.
[out] 15

[in] Give the observed %Inh of COC(=O)c1c(-c2ccccc2)c2cc(OC)ccc2c(=O)n1Cc1ccccc1 for MAP4K2.
[out] 0

---

%Inh: recorded values
Tested on: JAK3(JH1domain-catalytic)
Conditions: concentration: 1 μM, replicates: in singlicate; n = 1
Report the value in % with no unit label.

These recorded examples may help you get a feel for the data.
[[record]]
compound = "O=C(Nc1ccccc1)Nc1cccc(Oc2ccc3nccn3n2)c1"
number = 0

[[record]]
compound = "CCn1c(-c2ccccn2)nc2cnccc21"
number = 0

[[record]]
compound = "COc1cccc(NC(=O)NC2CCN(c3ccnc(Nc4ccc(F)cc4)n3)C2)c1 (centres unmarked)"
number = 0

[[record]]
compound = "O=C(Nc1n[nH]c2nc(-c3nccs3)c(Br)cc12)C1CC1"
number = 0

[[record]]
compound = "CS(=O)(=O)c1ccc(-c2c(-c3ncn[nH]3)sc(N3CCOCC3)c2C#N)cc1"
number = 2

[[record]]
compound = "COC(=O)c1c(-c2ccccc2)c2cc(C(=O)O)ccc2c(=O)n1Cc1ccccc1"
number = 0


[in] Give the observed %Inh of CCn1c(-c2cccnc2O)nc2cnccc21 for JAK3(JH1domain-catalytic).
[out] 0

[in] Give the observed %Inh of COC(=O)c1c(-c2ccccc2)c2cc(OC)ccc2c(=O)n1Cc1ccccc1 for JAK3(JH1domain-catalytic).
[out] 0

[in] Give the observed %Inh of COc1ccc(Nc2nccc(-c3cccc(NC(=O)c4cc5cc(F)ccc5[nH]4)c3)n2)cc1 for JAK3(JH1domain-catalytic).
[out] 0

[in] Give the observed %Inh of O=C(O)COc1ncnc2cc(-c3ccc4[nH]ncc4c3)sc12 for JAK3(JH1domain-catalytic).
[out] 46

[in] Give the observed %Inh of Cc1cccc(-c2cc(Nc3ccncc3)c3ccccc3n2)n1 for JAK3(JH1domain-catalytic).
[out] 0

[in] Give the observed %Inh of O=C1NC(=O)C(N2CCc3ccccc32)=C1c1ccccc1Cl for JAK3(JH1domain-catalytic).
[out] 40

[in] Give the observed %Inh of CSc1nn2c(=O)cc(N3CCOCC3)nc2n1Cc1cccc(C(F)(F)F)c1C for JAK3(JH1domain-catalytic).
[out] 0

[in] Give the observed %Inh of O=C(Nc1n[nH]c2nc(-c3nccs3)c(Br)cc12)C1CCCC1 for JAK3(JH1domain-catalytic).
[out] 0

[in] Give the observed %Inh of Cn1ccc2ncnc(Oc3cccc(C(=O)Nc4ccccc4)c3)c21 for JAK3(JH1domain-catalytic).
[out] 0

[in] Give the observed %Inh of Cc1c(O)cccc1Nc1ccnc2ccc(C(F)(F)F)cc12.Cl for JAK3(JH1domain-catalytic).
[out] 0

[in] Give the observed %Inh of Fc1cc(Cl)ccc1Nc1ccnc2cc(I)ccc12 for JAK3(JH1domain-catalytic).
[out] 0

[in] Give the observed %Inh of COc1cc2ncn(-c3cc(OCC4CCCO4)c(C(N)=O)s3)c2cc1OC (centres unmarked) for JAK3(JH1domain-catalytic).
[out] 0

[in] Give the observed %Inh of O=C(Nc1ccc2c(c1)OCO2)NC1CCN(c2ccnc(Nc3ccc(F)cc3)n2)C1 (centres unmarked) for JAK3(JH1domain-catalytic).
[out] 0

[in] Give the observed %Inh of Cc1c(Cn2ccn3c(=O)cc(N4CCOCC4)nc23)cccc1C(F)(F)F for JAK3(JH1domain-catalytic).
[out] 0
